meta.source: patent US20260356856A1

- TEST_SYSTEM: KRas G12S (Homo sapiens, UniProt P01116, G12S)
- Construct: Biotinylated KRas (corresponding to amino acids 1-169, produced at Accelegan Inc.); biotin (biotinylated); purchased Accelegan Inc
- Sequence (P01116 1-169 isoform P01116-2 G12S): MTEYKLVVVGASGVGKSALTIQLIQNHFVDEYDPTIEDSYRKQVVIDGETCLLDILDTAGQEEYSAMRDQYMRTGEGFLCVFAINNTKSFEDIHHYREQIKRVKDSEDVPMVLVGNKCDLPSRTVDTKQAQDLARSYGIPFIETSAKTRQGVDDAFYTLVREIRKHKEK
- ASSAY_NOTES: KRas binding assay, TR-FRET displacement of Cy5 labelled tracer
- PROTOCOL_CONDITIONS: 60-minute incubation at room temperature, 1% DMSO, pH 7.5
Rule: IC50 below 40 nM gives 1 (yes), anything at or above gives 0 (no).

COMPOUND: COC(=O)C1CCN(c2nc(OC[C@@]34CCCN3C[C@H](F)C4)nc3c(F)c(-c4ccc(F)c5sc(N)c(C#N)c45)c(Cl)cc23)CC1 [Example 286]
ASSIGNED_CATEGORY: 1 (yes)
--
COMPOUND: CCc1c(F)ccc2cc(O)cc(-c3ncc4c(NC[C@@H]5C[C@H]5C(=O)n5ccc(C)n5)nc(OC[C@@]56CCCN5C[C@H](F)C6)nc4c3F)c12 [Example 158]
ASSIGNED_CATEGORY: 1 (yes)
--
COMPOUND: COC(=O)[C@H]1CCN(c2nc(OCC34CCCN3CCC4)nc3c(F)c(-c4cccc5cccc(F)c45)ncc23)C[C@@H]1O [Example 45]
ASSIGNED_CATEGORY: 0 (no)
--
COMPOUND: C#CCC1(C(=O)n2ccc(C)n2)CCN(c2nc(OC[C@@]34CCCN3C[C@H](F)C4)nc3c(F)c(-c4cc(O)cc5ccc(F)c(CC)c45)ncc23)C1 (stereo partly shown) [Example 108]
ASSIGNED_CATEGORY: 0 (no)
--
COMPOUND: Cn1ccc(COC(=O)C2CCN(c3nc(OC[C@@]45CCCN4C[C@H](F)C5)nc4c(F)c(-c5ccc(F)c6sc(N)c(C#N)c56)c(Cl)cc34)CC2)n1 [Example 245]
ASSIGNED_CATEGORY: 1 (yes)
--
COMPOUND: CCc1c(F)ccc2cc(O)cc(-c3ncc4c(N5CCN(C(=O)n6ccnn6)CC5)nc(OC[C@@]56CCCN5C[C@H](F)C6)nc4c3F)c12 [Example 151]
ASSIGNED_CATEGORY: 1 (yes)
--
COMPOUND: C=CC1(C(=O)n2ccc(C)n2)CCN(c2nc(OC[C@@]34CCCN3C[C@H](F)C4)nc3c(F)c(-c4cc(O)cc5ccc(F)c(CC)c45)ncc23)CC1 [Example 102]
ASSIGNED_CATEGORY: 0 (no)
--
COMPOUND: CCc1c(F)ccc2cc(O)cc(-c3ncc4c(NC[C@@H]5C[C@@H]5C(=O)n5ccc(C)n5)nc(OC[C@@]56CCCN5C[C@H](F)C6)nc4c3F)c12 [Example 103]
ASSIGNED_CATEGORY: 1 (yes)

Could you please tell me whether IC50 recorded for Cc1ccn(C(=O)C2CCCN(c3nc(OCC4(CN(C)C)CC4)nc4c(F)c(-c5ccc(F)c6sc(N)c(C#N)c56)c(Cl)cc34)CC2)n1 (stereo not shown) [Example 227] is less than 40 nM? 1 (yes)

Could you please tell me whether IC50 recorded for CCc1c(F)ccc2cc(O)cc(-c3ncc4c(N5CC[C@H]6[C@@H](C5)[C@H]6C(=O)N(C)C(C)=O)nc(OC[C@@]56CCCN5C[C@H](F)C6)nc4c3F)c12 [Example 278] is less than 40 nM? 0 (no)

Could you please tell me whether IC50 recorded for CCc1c(F)ccc2cc(O)cc(-c3ncc4c(N5CCN(C(=O)n6ccc(C)n6)C(C(F)F)C5)nc(OC[C@@]56CCCN5C[C@H](F)C6)nc4c3F)c12 (stereo partly shown) [Example 125] is less than 40 nM? 0 (no)

Could you please tell me whether IC50 recorded for C=CC1(C(=O)n2ccc(C)n2)CCN(c2nc(OC[C@@]34CCCN3C[C@H](F)C4)nc3c(F)c(-c4cc(O)cc5ccc(F)c(CC)c45)ncc23)C1 (stereo partly shown) [Example 107] is less than 40 nM? 0 (no)

Could you please tell me whether IC50 recorded for N#Cc1c(N)sc2c(F)ccc(-c3c(Cl)cc4c(N5CCC(C(=O)N6CCOCC6)CC5)nc(OC[C@@]56CCCN5C[C@H](F)C6)nc4c3F)c12 [Example 241] is less than 40 nM? 1 (yes)

Could you please tell me whether IC50 recorded for CCc1c(F)ccc2cc(O)cc(-c3ncc4c(N5CCCCCC(C(=O)n6ccc(C)n6)C5)nc(OC[C@@]56CCCN5C[C@H](F)C6)nc4c3F)c12 (stereo partly shown) [Example 55] is less than 40 nM? 1 (yes)

Could you please tell me whether IC50 recorded for COCC(C)OC(=O)C1CCN(c2nc(OC[C@@]34CCCN3C[C@H](F)C4)nc3c(F)c(-c4ccc(F)c5sc(N)c(C#N)c45)c(Cl)cc23)CC1 (stereo partly shown) [Example 240] is less than 40 nM? 0 (no)

Could you please tell me whether IC50 recorded for COCC(=O)N(C)C(=O)CCCN(C)c1nc(OC[C@@]23CCCN2C[C@H](F)C3)nc2c(F)c(-c3ccc(F)c4sc(N)c(C#N)c34)c(Cl)cc12 [Example 307] is less than 40 nM? 1 (yes)

Could you please tell me whether IC50 recorded for CCc1c(F)ccc2cc(O)cc(-c3ncc4c(N5CCCC(C(=O)n6ccc(C)n6)C5)nc(OC[C@@]56CCCN5C[C@H](F)C6)nc4c3F)c12 (stereo partly shown) [Example 65] is less than 40 nM? 1 (yes)

Could you please tell me whether IC50 recorded for CCc1c(F)ccc2cc(O)cc(-c3c(F)cc4c(N5CCCC(C(=O)n6ccc(C)n6)CC5)nc(OC[C@@]56CCCN5C[C@H](F)C6)nc4c3F)c12 (stereo partly shown) [Example 174] is less than 40 nM? 0 (no)

Could you please tell me whether IC50 recorded for Cc1ccn(C(=O)C2CCN(c3nc(OC[C@@]45CCCN4C[C@H](F)C5)nc4c(F)c(-c5ccc(F)c6sc(N)c(C#N)c56)c(Cl)cc34)C2)n1 (stereo partly shown) [Example 139] is less than 40 nM? 1 (yes)

Could you please tell me whether IC50 recorded for CCc1c(F)ccc2cc(O)cc(-c3ncc4c(N5CC(C(=O)n6ccc(C)n6)C6(CC6)C5)nc(OC[C@@]56CCCN5C[C@H](F)C6)nc4c3F)c12 (stereo partly shown) [Example 119] is less than 40 nM? 0 (no)

Could you please tell me whether IC50 recorded for CCc1c(F)ccc2cc(O)cc(-c3ncc4c(N5CC[C@H]6[C@@H](C5)[C@H]6C(=O)n5ccc(C)n5)nc(OC[C@@]56CCCN5C[C@H](F)C6)nc4c3F)c12 [Example 156] is less than 40 nM? 1 (yes)

Could you please tell me whether IC50 recorded for Cc1ccn(C(=O)CCCNc2nc(OC[C@@]34CCCN3C[C@H](F)C4)nc3c(F)c(-c4ccc(F)c5sc(N)c(C#N)c45)c(Cl)cc23)n1 [Example 142] is less than 40 nM? 1 (yes)
